Values compiled from PubChem BioAssay (NCI).

# Test system: MALME-3M melanoma
# method: NCI tumour cell line growth inhibition, 48 h; in the data active means GI50 below about 0.43 µM; inactive means the rest
Labels: yes for active, no for inactive

1) CCOc1ccc2c(c1)CN(Cc1ccc(Cl)cc1)CO2 :: no
2) Cc1ccc(Cl)cc1NC(=O)c1cc2ccccc2cc1O :: yes
3) CC(c1ccccc1)[C@@H](C(=O)Nc1ccc(I)cc1F)N1C(=O)N[C@H](c2ccc(OC[C@H](O)CO)cc2)C1=O (stereo partly specified) :: yes
4) c1ccc(-c2n(Cc3ccc4ccccc4c3)cc[n+]2Cc2ccc3ccccc3c2)cc1 :: no
5) Nc1nnnc2nc[nH]c12 :: no
6) Cc1ccc(NC(=O)Nc2c(Cl)cccc2Cl)cn1 :: no
7) N#Cc1ccccc1C#C/C=C\C#Cc1ccccc1N :: no
8) C=C1C(=O)O[C@H]2[C@H]1CC/C(Cn1cc(-c3cccc(Cl)c3)nn1)=C\CC[C@@]1(C)O[C@@H]21 :: no
9) NC(=O)CC1(O)C=C(Br)C(=O)C(Br)=C1 :: no
10) COc1ccc(Cl)cc1Nc1nc(C(F)(F)F)ccc1C(=O)N/N=C/c1cccnc1 :: no
11) Cc1ccc(-c2nc3cc(Cl)c(Cl)cc3nc2C#N)cc1 :: no

----------
# Test system: OVCAR-4 ovarian
# method: NCI tumour cell line growth inhibition, 48 h
reported.metric: TGI

1) O=C(O)C(O)C(O)C(O)C(O)C(=O)O (stereo not given) :: > 100 µM
2) COc1cc(/C=C/c2ccc(Br)cc2)cc(OC)c1OC :: 87.1 µM
3) COc1cc(C2c3cc4c(cc3[C@@H](Nc3ccc(Oc5ccccc5)cc3)C3COC(=O)[C@H]23)OCO4)cc(OC)c1O (stereo not given in full) :: > 100 µM
4) O=C(O)c1c(Cl)c(Cl)c(Cl)c(Cl)c1C(=O)Nc1ccc2cn[nH]c2c1 :: > 100 µM
5) N=c1ccc2nc(N)nn(O)c-2c1 :: > 100 µM
6) CC1(C)S[C@H](CN)N[C@H]1C(=O)OC(c1ccccc1)c1ccccc1 :: > 100 µM
7) NS(=O)(=O)c1nnc(NC(=O)c2cccc([N+](=O)[O-])c2)s1 :: > 100 µM
8) OCCCSCCO :: > 100 µM
9) Oc1cc(CN2CCOCCOCCOCCOCC2)c(O)cc1CN1CCOCCOCCOCCOCC1 :: 34 µM
10) COc1ccc(-n2c3c(c4cc(O)ccc42)Cc2ccccc2C3=O)cc1 :: 82.1 µM

----------
# Tested on: SK-OV-3 ovarian
# method: NCI tumour cell line growth inhibition, 48 h
We begin with a simple list: items and their reported TGI.
reported.metric: TGI

1. O=S(=O)(O)c1ccc2c(N=Nc3ccc(N=Nc4ccccc4)cc3)c(O)c(S(=O)(=O)O)cc2c1 :: > 100 µM
2. C[C@H](CS)C(=O)N1c2ccccc2C[C@H]1C(=O)O :: > 100 µM
3. CCOc1ccc(/C=C(\Cl)c2ccc(OC)cc2)cc1 :: > 100 µM
4. O=C(Nc1cccc(-n2cc(-c3ccncc3)c(-c3ccc(O)c(Cl)c3)n2)c1)c1cc(C(F)(F)F)cc(C(F)(F)F)c1 :: > 50 µM
5. COC1=C(OC)C(=O)C(Sc2ccc3ccccc3c2)=CC1=O :: 31.7 µM
6. Clc1ccc(Nc2nc(Nc3ccccc3)nc(Nc3ccc(-c4cc(-c5ccc(Cl)cc5)on4)cc3)n2)cc1 :: > 100 µM
7. CCN(CC)CC(=O)NC1c2ccccc2Oc2c(C)cccc21 (stereo not given) :: > 100 µM
8. CC(C)CC(NP(=O)(O)OC1OC(C)C(O)C(O)C1O)C(=O)NC(Cc1c[nH]c2ccccc12)C(=O)O (stereo not given) :: > 100 µM
9. CN(C)C(=O)NC(=S)N(C)C :: > 100 µM
10. COc1cc2c(cc1O)CN1CCC23C=C[C@@H](O)CC13 (stereo not given in full) :: > 100 µM

----------
# Tested on: NCI-H226 lung
# method: NCI tumour cell line growth inhibition, 48 h
reported.metric: GI50

1) O=C(Nc1ccccc1C(F)(F)F)c1ccc(NC2=C(Cl)C(=O)N(Cc3ccccc3)C2=O)cc1 :: 13.6 µM
2) O=C(Cc1csc2nc(-c3ccc(Cl)cc3)cn12)N/N=C/c1ccccc1O :: 4.65 µM
3) CCN(CC)CCC(CNc1ccnc2cc(Cl)ccc12)c1ccccc1 (stereo not given) :: 11.3 µM
4) O=C(Nc1cccc(-n2cc(-c3ccncc3)c(-c3ccc(O)c(Cl)c3)n2)c1)c1cc(C(F)(F)F)cc(C(F)(F)F)c1 :: 10.3 µM
5) C/C(=N\n1c(O)c(C#N)cc(C#N)c1=O)c1ccncc1 :: > 100 µM

----------
We begin with a simple list: items and their reported TGI.
# Test system: UACC-257 melanoma
# method: NCI tumour cell line growth inhibition, 48 h
reported.metric: TGI (µM)

1) COc1c(O)cc2c(c1O)C(=O)C1=C(CCCC1)C2=O :: 81.2
2) O=C(Nc1ccccc1C(F)(F)F)c1ccc(NC2=C(Cl)C(=O)N(Cc3ccccc3)C2=O)cc1 :: 82.9
3) CC(c1ccccc1)[C@@H](C(=O)Nc1ccc(I)cc1F)N1C(=O)N[C@H](c2ccc(OC[C@H](O)CO)cc2)C1=O (stereo not given in full) :: 0.892
4) Clc1ccc(OCc2nnc3n2N=C(c2ccc(Br)cc2)CS3)cc1 :: 83.3
5) COc1ccc2nc(-c3ccccc3)cc(Nc3cccc(C(C)=O)c3)c2c1 :: 78.7
6) O=C(Nc1ccc(-n2ccc3c(NC(=O)c4ccccc4)nccc32)cc1)Nc1cccc(C(F)(F)F)c1 :: 26
7) Cc1ccc(/C=C/c2c(C(=O)/C=C/c3ccc(Cl)cc3)c(C)nc3ccccc23)cc1 :: 4.8
8) Cc1ccc(OCC2=NC3S/C(=C/c4ccc([N+](=O)[O-])o4)C(=O)N3N2)cc1 (stereo not given) :: 25.5

----------
We begin with a simple list: items and their reported GI50.
# Tested on: SK-MEL-5 melanoma
# method: NCI tumour cell line growth inhibition, 48 h
reported.metric: GI50

1) CCCCCC[C@@H](C)Nc1nc2ccccc2c2occc12 :: 2890 nM
2) O=C1c2cccnc2C(=O)c2c1c(C(=O)NCCn1ccnc1)c1ccccn21 :: 1060 nM
3) CCN(CC)CCC(CNc1ccnc2cc(Cl)ccc12)c1ccccc1 (configuration not stated) :: 1690 nM
4) Cc1ccc(Cl)cc1NC(=O)c1cc2ccccc2cc1O :: 277 nM
5) CN1CCN(c2ccc(NC(=O)c3cncnc3Nc3ccc(OCc4cccc(F)c4)c(Cl)c3)cc2)CC1 :: 1550 nM
6) CC1C(=O)c2cc3c(cc2CCN(C)Cc2c1ccc1c2OCO1)OCO3 (configuration not stated) :: 37.1 µg/mL
7) NC(=O)CC1(O)C=C(Br)C(=O)C(Br)=C1 :: 12500 nM
8) COc1ccc2nc(-c3ccccc3)cc(Nc3cccc(C(C)=O)c3)c2c1 :: 8890 nM
9) CCCCN=C(N)c1ccc(N2CCCN(c3ccc(C(N)=NCCCC)cc3)CC2)cc1 :: 5040 nM
10) COc1ccccc1/C=C/C1=C(C)CCC(c2ccccc2OC)C1C (configuration not stated) :: 122 nM
11) CCCCCCCCCC(CCCC(O)CC(=O)O)OC1OC(COC2OC(C)C(OC(C)=O)C(O)C2O)C(O)C(O)C1OC1OC(CO)C(O)C(O)C1OC1OC(C)C(OC(=O)CC(C)C)C(O)C1O (configuration not stated) :: > 35000 nM
12) CC(c1ccccc1)[C@@H](C(=O)Nc1ccc(I)cc1F)N1C(=O)N[C@H](c2ccc(OC[C@H](O)CO)cc2)C1=O (some centres not stated) :: 850 nM
13) Cc1ccc(-c2nc3cc(Cl)c(Cl)cc3nc2C#N)cc1 :: > 100000 nM
14) COc1cc(/C=C/C(=O)N2CCC=CC2=O)cc(OC)c1OC :: 3350 nM
15) CCCCCCCCCCCCCCCCCCOc1ccccc1CC(=O)OCC[N+](CC)(CC)CC :: 942 nM
16) COc1ccc(Cl)cc1Nc1nc(C(F)(F)F)ccc1C(=O)N/N=C/c1cccnc1 :: 2640 nM
17) NC1=NC(=O)/C(=C/c2ccc3ncccc3c2)S1 :: > 25000 nM

----------
# Test system: OVCAR-8 ovarian
# method: NCI tumour cell line growth inhibition, 48 h; in the data active = GI50 below about 0.43 µM; inactive = the rest
Labels: TRUE for active, FALSE for inactive

1. NC(=O)CC1(O)C=C(Br)C(=O)C(Br)=C1 :: FALSE
2. NC1=NC(=O)/C(=C/c2ccc3ncccc3c2)S1 :: FALSE
3. COc1ccc(C(=O)O[C@H]2[C@H](O[C@H]3[C@@H](O)COC(O[C@H]4C[C@H]5[C@@H]6CC=C7C[C@@H](O)CC[C@]7(C)[C@H]6CC[C@]5(C)[C@H]4[C@H](C)C(=O)CCC(C)C)[C@@H]3OC(C)=O)OC[C@@H](O)[C@@H]2O)c(C)c1 (some centres undefined) :: FALSE
4. CCOC(=O)/C(C#N)=C1\SS/C(=C(/C#N)C(=O)OCC)S1 :: FALSE
5. O=C(Cc1csc2nc(-c3ccc(Cl)cc3)cn12)N/N=C/c1ccccc1O :: FALSE
6. Cc1ccc(NC(=O)Nc2c(Cl)cccc2Cl)cn1 :: FALSE
7. NC(Cc1c[nH]c2ccc(F)cc12)C(=O)O (centres undefined) :: FALSE
8. COc1ccc(Cn2cc3c(c2)-c2oncc2CC3)cc1OC :: TRUE
9. COc1ccc2nc3cc([N+](=O)[O-])ccc3c(NNc3ccccc3)c2c1 :: FALSE
10. Cc1ccc(-c2nc(N3CCNCC3)c3oc(-c4ccccc4)nc3n2)cc1 :: FALSE
11. Clc1ccc(Nc2nc(Nc3ccccc3)nc(Nc3ccc(-c4cc(-c5ccc(Cl)cc5)on4)cc3)n2)cc1 :: FALSE
12. CCOc1ccc2c(c1)CN(Cc1ccc(Cl)cc1)CO2 :: FALSE
13. CCCCCCCCCC(CCCC(O)CC(=O)O)OC1OC(COC2OC(C)C(OC(C)=O)C(O)C2O)C(O)C(O)C1OC1OC(CO)C(O)C(O)C1OC1OC(C)C(OC(=O)CC(C)C)C(O)C1O (centres undefined) :: FALSE
14. Cc1nc(-c2cnc(NC(C)C)n(C)c2=O)ccc1Oc1ccnc(-c2cnn(C)c2)c1 :: FALSE
